# statedConditions: in acetone, 317.15 K
valueType: solubility (mole fraction)

1. CC[C@H](/C=C/[C@@H](C)[C@H]1CC[C@H]2[C@@H]3CC=C4C[C@@H](OC(=O)/C=C\C(=O)O)CC[C@]4(C)[C@H]3CC[C@]12C)C(C)C
0.000785

====

# statedConditions: in acetone, 293.15 K
valueType: solubility (mole fraction)

1) CC[C@H](/C=C/[C@@H](C)[C@H]1CC[C@H]2[C@@H]3CC=C4C[C@@H](OC(=O)/C=C\C(=O)O)CC[C@]4(C)[C@H]3CC[C@]12C)C(C)C
0.000383

====

# statedConditions: in ethyl acetate, 302.65 K
valueType: solubility (mole fraction)

1) CC[C@H](/C=C/[C@@H](C)[C@H]1CC[C@H]2[C@@H]3CC=C4C[C@@H](OC(=O)/C=C\C(=O)O)CC[C@]4(C)[C@H]3CC[C@]12C)C(C)C
0.0028

====

# statedConditions: in ethyl acetate, 298.15 K
valueType: solubility (mole fraction)

1) CC[C@H](/C=C/[C@@H](C)[C@H]1CC[C@H]2[C@@H]3CC=C4C[C@@H](OC(=O)/C=C\C(=O)O)CC[C@]4(C)[C@H]3CC[C@]12C)C(C)C
0.00202

====

# statedConditions: in acetone, 296.65 K
valueType: solubility (mole fraction)

1. CC[C@H](/C=C/[C@@H](C)[C@H]1CC[C@H]2[C@@H]3CC=C4C[C@@H](OC(=O)/C=C\C(=O)O)CC[C@]4(C)[C@H]3CC[C@]12C)C(C)C
0.000431

====

# statedConditions: in ethyl acetate, 312.65 K
valueType: solubility (mole fraction)

1. CC[C@H](/C=C/[C@@H](C)[C@H]1CC[C@H]2[C@@H]3CC=C4C[C@@H](OC(=O)/C=C\C(=O)O)CC[C@]4(C)[C@H]3CC[C@]12C)C(C)C
0.00438

====

# statedConditions: in ethyl acetate, 293.25 K
valueType: solubility (mole fraction)

1. CC[C@H](/C=C/[C@@H](C)[C@H]1CC[C@H]2[C@@H]3CC=C4C[C@@H](OC(=O)/C=C\C(=O)O)CC[C@]4(C)[C@H]3CC[C@]12C)C(C)C
0.00179

====

# statedConditions: in ethyl acetate, 317.35 K
valueType: solubility (mole fraction)

1. CC[C@H](/C=C/[C@@H](C)[C@H]1CC[C@H]2[C@@H]3CC=C4C[C@@H](OC(=O)/C=C\C(=O)O)CC[C@]4(C)[C@H]3CC[C@]12C)C(C)C
0.0053

====

# statedConditions: in acetone, 325.65 K
valueType: solubility (mole fraction)

1) CC[C@H](/C=C/[C@@H](C)[C@H]1CC[C@H]2[C@@H]3CC=C4C[C@@H](OC(=O)/C=C\C(=O)O)CC[C@]4(C)[C@H]3CC[C@]12C)C(C)C
0.00102

====

# statedConditions: in ethyl acetate, 288.15 K
valueType: solubility (mole fraction)

1. CC[C@H](/C=C/[C@@H](C)[C@H]1CC[C@H]2[C@@H]3CC=C4C[C@@H](OC(=O)/C=C\C(=O)O)CC[C@]4(C)[C@H]3CC[C@]12C)C(C)C
0.00146
